Target: CD73 (Homo sapiens (Human), UniProt P21589)
Sequence (P21589 27-574): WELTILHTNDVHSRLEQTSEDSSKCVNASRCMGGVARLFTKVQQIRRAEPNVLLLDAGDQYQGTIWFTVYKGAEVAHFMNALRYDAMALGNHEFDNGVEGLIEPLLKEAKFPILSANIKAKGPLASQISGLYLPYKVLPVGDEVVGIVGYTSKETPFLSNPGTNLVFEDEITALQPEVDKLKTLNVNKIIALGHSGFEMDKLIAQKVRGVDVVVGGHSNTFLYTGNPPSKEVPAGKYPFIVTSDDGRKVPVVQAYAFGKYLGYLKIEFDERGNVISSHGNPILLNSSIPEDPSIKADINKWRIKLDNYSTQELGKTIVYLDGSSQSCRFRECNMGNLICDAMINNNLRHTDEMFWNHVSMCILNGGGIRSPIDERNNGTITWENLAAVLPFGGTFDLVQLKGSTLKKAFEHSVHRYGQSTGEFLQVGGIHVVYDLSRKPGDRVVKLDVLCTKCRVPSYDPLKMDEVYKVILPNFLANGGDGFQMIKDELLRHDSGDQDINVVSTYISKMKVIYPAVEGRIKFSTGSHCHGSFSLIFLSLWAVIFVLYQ
Assay type: biochemical
Conditions: 1 mM NaH2PO4 in enzyme buffer, CD73 0.3 nM, AMP 15 uM
pIC50: −log10 of the molar value.
measurement.type: pIC50

// below: answered compounds
stdin: So what does the record say about pIC50 for CC1(C)CN(c2cc(-c3c[nH]c(=O)[nH]c3=O)nc3c(Cl)cnn23)CC1(F)F ?
stdout: 8.27

stdin: So what does the record say about pIC50 for O=c1[nH]cc(-c2cc([C@H]3C[C@@H]3c3ccc(C(F)(F)F)cc3)c3nccn3n2)c(=O)[nH]1 (racemic) [Example 42] ?
stdout: 8.68

stdin: So what does the record say about pIC50 for O=C(NC12CC(C(F)(F)F)(C1)C2)O[C@H]1CN(c2cc(-c3c[nH]c(=O)[nH]c3=O)nn3c(F)cnc23)CC1(F)F ?
stdout: 8.84

stdin: So what does the record say about pIC50 for O=c1[nH]cc(-c2cc(N3CC4CC(C4)C3)c3nccn3n2)c(=O)[nH]1 ?
stdout: 8.16

I: O=c1[nH]cc(-c2cc([C@H]3C[C@@H]3c3ccnc4ccccc34)c3nccn3n2)c(=O)[nH]1 (racemic)
II: CC1(CC(F)F)CN(c2cc(-c3c[nH]c(=O)[nH]c3=O)nn3ccnc23)C1
III: O=c1[nH]cc(-c2cc(N3CC(F)(F)C4(CC4)C3)n3nccc3n2)c(=O)[nH]1
stdin: Hey, quick one: sort these by pIC50, largest value first please. # answer = labels listed in requested order
stdout: III, I, II
(III: 7.92, I: 7.48, II: 7.15)

----------
Target: CD73 (Homo sapiens (Human), UniProt P21589)
Type: biochemical
Details: 1 mM NaH2PO4 in enzyme buffer, CD73 0.3 nM, AMP 15 uM
measurement.type: IC50 (µM)

// below: answered compounds
stdin: So what does the record say about IC50 for O=C(CCC(F)(F)COc1cc(-c2c[nH]c(=O)[nH]c2=O)nn2ccnc12)NCC(F)(F)F ?
stdout: 0.00404

stdin: So what does the record say about IC50 for O=c1[nH]cc(-c2cc(NCCc3cccc(F)c3)c3nccn3n2)c(=O)[nH]1 ?
stdout: 0.0256

stdin: So what does the record say about IC50 for C[C@H](CNc1cc(-c2c[nH]c(=O)[nH]c2=O)nn2ccnc12)c1ccccc1 ?
stdout: 0.163

P: CC1(C)C(=O)N(CC(F)(F)F)c2cc([C@H]3C[C@@H]3c3cc(-c4c[nH]c(=O)[nH]c4=O)nn4ccnc34)cnc21 [Example 699]
Q: O=c1[nH]cc(-c2cc(N3CCC(c4cccc(C(F)(F)F)c4)C3)c3nccn3n2)c(=O)[nH]1 (stereo not drawn)
stdin: Could you determine which record has the numerically smaller IC50? Candidates: P and Q // output: label of the selected item
stdout: P

I: CC(C)COc1cc(-c2c[nH]c(=O)[nH]c2=O)nn2ccnc12
II: O=C(NC1CN(c2cc(-c3c[nH]c(=O)[nH]c3=O)nn3ccnc23)CC1(F)F)c1ccc(C(F)(F)F)cn1 (stereo not drawn)
III: O=c1[nH]cc(-c2cc(N3CC(F)(F)C4(CC4)C3)c3ncnn3n2)c(=O)[nH]1
stdin: Sort low-to-high on IC50, please. # answer = labels listed in requested order
stdout: III, II, I
(III: 0.0011 µM, II: 0.00233 µM, I: 0.0239 µM)

A: CC1(C)CN(c2cc(-c3c[nH]c(=O)[nH]c3=O)nn3cc(C4CC4)nc23)CC1(F)F
B: O=c1[nH]cc(-c2cc(N3CC(C45CC(C4)C5)C3)c3nccn3n2)c(=O)[nH]1
C: O=c1[nH]cc(-c2cc([C@H]3C[C@@H]3c3ccc(C(F)(F)F)cn3)c3nccn3n2)c(=O)[nH]1 [Example 150]
stdin: Sort low-to-high on IC50, please. # answer = labels listed in requested order
stdout: C, A, B
